Tested on: {'v': 'CYP2C9', 'o': 'p', 'q': 'Cytochrome P450 2C9 (single_protein)'} (Homo sapiens, UniProt P11712)
Sequence (P11712 whole entry): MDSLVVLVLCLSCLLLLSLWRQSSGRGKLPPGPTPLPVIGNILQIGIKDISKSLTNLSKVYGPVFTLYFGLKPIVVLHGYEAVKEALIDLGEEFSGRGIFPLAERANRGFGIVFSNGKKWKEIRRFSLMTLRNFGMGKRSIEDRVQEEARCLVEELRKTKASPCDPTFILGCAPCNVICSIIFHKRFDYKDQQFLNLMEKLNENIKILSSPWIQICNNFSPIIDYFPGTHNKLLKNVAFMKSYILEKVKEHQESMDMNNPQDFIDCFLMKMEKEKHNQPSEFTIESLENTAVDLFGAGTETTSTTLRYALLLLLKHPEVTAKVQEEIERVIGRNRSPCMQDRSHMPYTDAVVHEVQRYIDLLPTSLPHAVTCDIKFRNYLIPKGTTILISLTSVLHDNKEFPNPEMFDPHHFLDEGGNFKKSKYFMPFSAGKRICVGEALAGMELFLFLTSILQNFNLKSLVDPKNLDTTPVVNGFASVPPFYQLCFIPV
Method notes: Binding affinity was measured on Cytochrome P450 2C9
Recorded endpoint: Ki

In [3]: df
Out[3]:
                        compound_smiles  recorded_endpoint   value
0  CC[C@H](c1ccccc1)c1c(O)c2ccccc2oc1=O                 Ki  0.5 µM

Source of measurements: BindingDB's records for doi:10.1021/jm000048n
